- System under test: SARS-CoV-2 PL^pro (Severe acute respiratory syndrome coronavirus 2, UniProt P0DTD1)
- Measurement protocol: biochemical
- Format: biochemical
- Measurement conditions: FRET assay; read-out: SARS-CoV-2 PL^pro IC50
Please use MET for IC50 under 6 µM and NOT MET for everything else, ties included.

The examples below pair each entry with its known result.
Molecule	Group label
CC(c1ccccc1F)N(C)Cc1cc(O)ccc1Cl (stereo not shown)	NOT MET
C[C@H](c1cccc2ccccc12)N(C)Cc1ccc2c(c1)NC(=O)CO2	NOT MET
C[C@H](c1cccc2ccccc12)N(C)Cc1ccc2c(c1)COC2=O	NOT MET
C[C@H](c1cccc2ccccc12)N(C)Cc1ccc(OCC(N)=O)nc1	MET
COc1ccc(Cl)c(CN(C)[C@H](C)c2ccccc2C)c1	NOT MET

## Task Dear colleague, could you confirm whether IC50 of "C[C@H](c1cccc2ccccc12)N(C)Cc1cc(N)ccc1Cl" falls below 6 µM? Thanks.
## Result MET

## Task Dear colleague, could you confirm whether IC50 of "Cc1cc(O)cc(C)c1CN(C)[C@H](C)c1cccc2ccccc12" falls below 6 µM? Thanks.
## Result MET

## Task Dear colleague, could you confirm whether IC50 of "C[C@H](c1cccc2ccccc12)N(C)Cc1cncn1C" falls below 6 µM? Thanks.
## Result NOT MET

## Task Dear colleague, could you confirm whether IC50 of "C[C@H](c1cccc2ccccc12)N(C)Cc1cnc2c(O)cccn12" falls below 6 µM? Thanks.
## Result NOT MET

## Task Dear colleague, could you confirm whether IC50 of CC(C1CC(F)CCC1F)N(C)Cc1cc(O)ccc1Cl (stereo not shown) falls below 6 µM? Thanks.
## Result NOT MET

Sourced from patent US20240325321A1
